- ASSAY INFO: Aqueous solubility at 25 degC
- Type: physicochemical
- EXPERIMENTAL PARAMETERS: water
QUANTITY NAME: solubility

Note solubility for the molecule shown: O=C1N[C@H]2[C@H](O)[C@H](O)[C@@H](O)C[C@@H]2c2cc3c(cc21)OCO3
< 1000 µg/mL

Note solubility for the molecule shown: O=C1N[C@H]2[C@@H]3OP(=O)([O-])O[C@@H]3[C@@H](O)C[C@@H]2c2cc3c(cc21)OCO3.[Li+]
> 5000 µg/mL

Note solubility for the molecule shown: O=C1N[C@@H]2C(=C[C@H](O)[C@H]3OP(=O)([O-])O[C@H]32)c2cc3c(cc21)OCO3.[Li+]
> 10000 µg/mL

Note solubility for the molecule shown: O=C1N[C@H]2[C@@H]3OP(=O)([O-])O[C@@H]3[C@@H](O)C[C@@H]2c2cc3c(c(O)c21)OCO3.[Li+]
> 1000 µg/mL

Note solubility for the molecule shown: O=C1N[C@@H]2C(=C[C@H](O)[C@H]3OP(=O)([O-])O[C@H]32)c2cc3c(cc21)OCO3.[Na+]
> 190000 µg/mL

Note solubility for the molecule shown: O=C1N[C@@H]2C(=C[C@H](O)[C@@H](O)[C@H]2O)c2cc3c(cc21)OCO3
< 1000 µg/mL

Note solubility for the molecule shown: O=C1N[C@H]2[C@@H]3OP(=O)([O-])O[C@@H]3[C@@H](O)C[C@@H]2c2cc3c(c(O)c21)OCO3.[K+]
> 1000 µg/mL
